assay: HTRF signal interference by compounds, confirmation, artefact control for SUMOylation inhibitor project, biochemical, uHTS (AID 2069); conditions: HTRF interference counterscreen, fluorescence, at 35 µM
About 210 (18%) of roughly 1,200 compounds were called active. No stated cut-off is given here; in the data, active means inhibition above about 30%; inactive means the rest. The list is a sample of the results.
Outcome codes: YES for active, NO for inactive

MOLECULE: O=C(/C=C/c1ccco1)Nc1cccc2cccnc12
ASSIGNED CLASS: NO
//
MOLECULE: Cc1cccn2c(=O)c3cc(C#N)c(=NC(=O)c4ccco4)n(Cc4ccco4)c3nc12
ASSIGNED CLASS: NO
//
MOLECULE: CC1CCN(CCCn2c(=S)[nH]c3ccc(N4CCOCC4)cc3c2=O)CC1
ASSIGNED CLASS: YES
//
MOLECULE: Cc1occc1C(=O)N1CCN(c2ccccc2)CC1
ASSIGNED CLASS: NO
//
MOLECULE: COc1ccc2[nH]c3c(=O)n(CCCC(=O)NC4CCC(C)CC4)c(=S)[nH]c3c2c1 (stereo not given)
ASSIGNED CLASS: NO
//
MOLECULE: CC1=Nc2nc(N3CCCCC3)c(C#N)c3c4c(nc(c23)N1)N(c1ccc(C(C)C)cc1)C(=O)C4
ASSIGNED CLASS: NO
//
MOLECULE: COc1ccc(/C=C2/SC(=S)N(c3ccc(S(=O)(=O)Nc4nccs4)cc3)C2=O)cc1
ASSIGNED CLASS: NO
//
MOLECULE: Cc1[nH]n(-c2ccccc2)c(=O)c1C(C[N+](=O)[O-])c1ccc(Br)cc1 (stereo not given)
ASSIGNED CLASS: NO
//
MOLECULE: O=c1c2cc(N3CCOCC3)ccc2[nH]c(=S)n1CC1CCCO1 (stereo not given)
ASSIGNED CLASS: YES
//
MOLECULE: Cc1ccc(N/N=C2\CC(=O)c3ccccc32)cc1Cl
ASSIGNED CLASS: NO
